Tested on: Staphylococcus aureus
Experiment: Antimicrobial activity against Staphylococcus aureus ATCC 25923
Format: functional
Reported MIC values are given for each entry in this list.

Observe how each entry below is paired with its result.
>  <Compound>
O=C(O)c1cn(C2CC2)c2cc(N3CCNCC3)c(F)cc2c1=O [CIPROFLOXACIN]

>  <MIC>
0.5 µg/mL

$$$$
>  <Compound>
CCCCCCCC/C=C/CCCCCCCC(=O)OCC(CO[C@@H]1O[C@H](CO)[C@@H](O)[C@H](O)[C@H]1O)OC(=O)CCCCCCC/C=C/CCCCCCCC (mixture of isomers)

>  <MIC>
> 128 µg/mL

$$$$
>  <Compound>
CCCCCCCC/C=C/CCCCCCCC(=O)OC(COC(=O)CCCCCCC)CO[C@@H]1O[C@H](CO)[C@@H](O)[C@H](O)[C@H]1O (mixture of isomers)

>  <MIC>
> 128 µg/mL

$$$$
>  <Compound>
CCCCC/C=C/C/C=C/CCCCCCCC(=O)OC(COC(=O)CCCCCCCCC)CO[C@@H]1O[C@H](CO)[C@@H](O)[C@H](O)[C@H]1O (mixture of isomers)

>  <MIC>
> 128 µg/mL

$$$$

Bench note: what MIC did CCCCCCCCCCCC(=O)OCC(CO[C@@H]1O[C@H](CO)[C@@H](O)[C@H](O)[C@H]1O)OC(=O)CCCCCCCCCCC (mixture of isomers) show?
> 128 µg/mL

For the compound CCCCC/C=C/C/C=C/CCCCCCCC(=O)OCC(CO[C@@H]1O[C@H](CO)[C@@H](O)[C@H](O)[C@H]1O)OC(=O)CCCCCCC/C=C/C/C=C/CCCCC (mixture of isomers) , what MIC is on record?
> 128 µg/mL

// returns reported MIC for input CCCCCCCCCC(=O)OCC(CO[C@@H]1O[C@H](CO)[C@@H](O)[C@H](O)[C@H]1O)OC(=O)CCCCCCCCC (mixture of isomers)
> 128 µg/mL

# input compound: CCCCCCCC/C=C/CCCCCCCC(=O)OC(COC(=O)CCCCCCCCC)CO[C@@H]1O[C@H](CO)[C@@H](O)[C@H](O)[C@H]1O (mixture of isomers) ; wanted: its MIC
8 µg/mL
